Target: CYP2D6 (Homo sapiens, UniProt P10635)
Sequence (P10635 whole entry): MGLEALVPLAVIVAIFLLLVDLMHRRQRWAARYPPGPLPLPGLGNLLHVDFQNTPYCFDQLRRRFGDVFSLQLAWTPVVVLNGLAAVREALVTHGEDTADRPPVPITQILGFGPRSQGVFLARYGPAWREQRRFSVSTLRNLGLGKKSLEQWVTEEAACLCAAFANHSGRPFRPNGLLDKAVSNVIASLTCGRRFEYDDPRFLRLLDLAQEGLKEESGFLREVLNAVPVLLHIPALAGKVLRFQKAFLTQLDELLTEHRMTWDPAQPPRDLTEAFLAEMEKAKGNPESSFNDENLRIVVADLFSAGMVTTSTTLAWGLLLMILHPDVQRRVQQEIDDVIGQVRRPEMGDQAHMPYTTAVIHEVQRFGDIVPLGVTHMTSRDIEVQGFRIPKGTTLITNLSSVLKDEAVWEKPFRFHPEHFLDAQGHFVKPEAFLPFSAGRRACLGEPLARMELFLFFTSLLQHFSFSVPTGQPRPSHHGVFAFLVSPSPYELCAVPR
Experiment: CYP2D6 inhibition in pooled human liver microsomes
Format: in vitro ADME
Set-up: Pooled human liver microsomes (HLM, final concentration 0.05 mg protein/mL); tissue BD Biosciences 452161; host or cells: pooled human liver microsomes
Conditions: 10 μM compound, dextrorphan formation rate
Protocol: Stock solutions of the test compounds (1 mM) were prepared in 50% isopropanol or 20% DMSO. […] The quantification of CYP2D6 product (dextrorphan) was performed by LC/MS/MS. […] The CYP2D6 activity in HLM was calculated as the metabolite formation rate: […] Where, v is the formation rate, [metabolite] is the detected concentration of dextrorphan (pmol/mL) at the time (t, min) and [protein] is the protein concentration (mg/mL) in the reaction mixture. […]
Reported property: CYP2D6 activity (% of vehicle)

Query block: // returns reported CYP2D6 activity (% of vehicle) for input CC[C@H](C)[C@H](NC(=O)[C@H](CCC(=O)O)NC(=O)[C@H](CO)NC(=O)[C@@H](NC(=O)[C@@H](N)CO)C(C)C)C(=O)N[C@@H](CCC(N)=O)C(=O)N[C@@H](CC(C)C)C(=O)N[C@@H](CCSC)C(=O)N[C@@H](Cc1c[nH]cn1)C(=O)N[C@@H](CC(N)=O)C(=O)N[C@@H](CC(C)C)C(=O)NCC(=O)N[C@H]1CCCCNC(=O)C[C@@H](C(N)=O)NC(=O)[C@H](CC(N)=O)NC(=O)[C@H](CC(C)C)NC(=O)[C@H](Cc2c[nH]cn2)NC1=O [SEQ ID NO: 36]
Result block: 79 % of vehicle

* * *

target: Saos-2 PTH1R (Homo sapiens, UniProt Q03431); construct: endogenous in cells; assay: cAMP-efficacy assay in Saos-2 cells; settings: cAMP, 100 μM IBMX, 37° C. 15 min, suffix of label = salt tested
Sequence (Q03431 27-593): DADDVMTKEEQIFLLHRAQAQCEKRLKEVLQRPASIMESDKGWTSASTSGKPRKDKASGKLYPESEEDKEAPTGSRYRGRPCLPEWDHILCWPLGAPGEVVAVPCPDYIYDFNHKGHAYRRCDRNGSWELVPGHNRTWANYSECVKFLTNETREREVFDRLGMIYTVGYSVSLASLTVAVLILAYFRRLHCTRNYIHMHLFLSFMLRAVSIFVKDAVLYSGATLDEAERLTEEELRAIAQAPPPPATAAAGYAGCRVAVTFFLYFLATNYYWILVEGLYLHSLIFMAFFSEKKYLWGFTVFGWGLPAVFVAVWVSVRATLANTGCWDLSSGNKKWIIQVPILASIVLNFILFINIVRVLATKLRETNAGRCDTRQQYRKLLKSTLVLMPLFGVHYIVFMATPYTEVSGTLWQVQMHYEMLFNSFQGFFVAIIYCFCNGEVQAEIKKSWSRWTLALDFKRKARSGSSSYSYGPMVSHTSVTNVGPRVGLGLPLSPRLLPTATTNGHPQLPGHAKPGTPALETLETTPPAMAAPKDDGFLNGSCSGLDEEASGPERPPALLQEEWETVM
Bridge positions count the residues as written; N and C are the ends. Square brackets hold non-standard residues; d marks the D form. Peptide text beside a SMILES is read from it. hArg = N=C(N)NCCCC[C@H](N)C(=O)O; Ac5c = NC1(C(=O)O)CCCC1; Aib = CC(C)(N)C(=O)O
Reported property: pEC50
Interpret pEC50 as the negative base-10 log of the concentration measured in mol/L.

Query block: // returns reported pEC50 for input CC[C@H](C)[C@H](NC(=O)[C@H](CCC(=O)O)NC(=O)C(C)(C)NC(=O)[C@@H](NC(=O)C1(N)CCCC1)C(C)C)C(=O)N[C@@H](CCC(N)=O)C(=O)N[C@@H](CC(C)C)C(=O)N[C@@H](CCSC)C(=O)N[C@@H](Cc1c[nH]cn1)C(=O)N[C@@H](CCC(N)=O)C(=O)N[C@@H](CCCCNC(=N)N)C(=O)N[C@@H](C)C(=O)N[C@H]1CCCCNC(=O)C[C@@H](C(N)=O)NC(=O)[C@H](CC(C)C)NC(=O)[C@H](Cc2c[nH]c3ccccc23)NC1=O [SEQ ID NO: 30] (H-[Ac5c]V[Aib]EIQLMHQ[hArg]AKWLD-NH2; lactam 13-16)
Result block: 7.09
